Origin of the recorded values: ChEMBL document CHEMBL3774376

tested on: Mus musculus; test: Anticonvulsant activity in ip dosed CD1 albino mouse assessed as time to peak effect; type: functional
List of Time values.
Enter your answer as a number in h; do not include the unit.

>>> df
                                   molecule  measurement_kind  readout_value
0  CC1CC(=O)N(CC(=O)N2CCN(c3ccc(Cl)cc3)CC2)C1=O (stereo unspecified)              Time              4

Kindly review the next molecule as well.
## Task Lab note: need Time with Mus musculus for entry CC1CC(=O)N(CC(=O)N2CCN(c3cccc(Cl)c3)CC2)C1=O (stereo unspecified) , please look it up.
## Result 1

====

species: Rattus norvegicus; assay: Displacement of [3H]BTX from voltage-sensitive Na+ channel site 2 in rat cerebral cortex synaptoneurosomes at 100 uM after 60 mins by liquid scintillation spectroscopic analysis; assay type: tissue-based
measurement-kind: inhibition (%)
Enter your answer as a number in %; do not include the unit.

Before answering, review these 6 worked examples.
>>> print(df.to_string())
                                   compound  readout_value
0  CCC1(C)CC(=O)N(CC(=O)N2CCN(c3cccc(C(F)(F)F)c3)CC2)C1=O (configuration not stated)           63.5
1  CC1CC(=O)N(CC(=O)N2CCN(c3cccc(Cl)c3)CC2)C1=O (configuration not stated)           28.5
2  CC1CC(=O)N(CC(=O)N2CCN(c3ccc(Cl)c(Cl)c3)CC2)C1=O (configuration not stated)           33.4
3  O=C1NC(=O)C(c2ccccc2)(c2ccccc2)N1 [PHENYTOIN]           53.9
4  CC1CC(=O)N(CC(=O)N2CCN(c3ccc(F)cc3)CC2)C1=O (configuration not stated)           36.6
5  CCC1(C)CC(=O)N(CC(=O)N2CCN(c3ccc(F)cc3)CC2)C1=O (configuration not stated)           32.5

Kindly review the next compound as well.
## Task Which inhibition value is on record for CC1CC(=O)N(CC(=O)N2CCN(c3ccc(Cl)cc3)CC2)C1=O (configuration not stated) ?
## Result 20.9

====

List of TD50 values.
assay: Neurotoxicity in ip dosed CD1 albino mouse assessed as acute motor impairment by rotarod test; format: toxicity, organism-based; conditions: in vivo
Enter your answer as a number in mg/kg; do not include the unit.

>>> df
                                   compound  reading_unit  readout_value
0  CC1CC(=O)N(CC(=O)N2CCN(c3cccc(Cl)c3)CC2)C1=O (stereo not given)         mg/kg            323

## Task Which TD50 value is on record for CCC1(C)CC(=O)N(CC(=O)N2CCN(c3ccc(Cl)cc3)CC2)C1=O (stereo not given) ?
## Result 196

## Task What about CC1CC(=O)N(CC(=O)N2CCN(c3cccc(Cl)c3Cl)CC2)C1=O (stereo not given) ?
## Result 343

## Task What about O=C1NC(=O)C(c2ccccc2)(c2ccccc2)N1 ?
## Result 56.9

====

List of minimal effective dose values.
system: Mus musculus; assay: Anticonvulsant activity in CD1 albino mouse assessed as protection against maximal electroshock-induced seizures at 100 to 300 mg/kg, ip after 4 hrs; type: functional; settings: read-out: MED
Enter your answer as a number in mg/kg; do not include the unit.

In [3]: df
Out[3]:
                                   compound  reading_unit  readout_value
0         O=C1NC(=O)C(c2ccccc2)(c2ccccc2)N1         mg/kg             30
1  CC1CC(=O)N(CC(=O)N2CCN(c3ccc(Cl)cc3)CC2)C1=O (stereo not drawn)         mg/kg             30
2  CC1CC(=O)N(CC(=O)N2CCN(c3cccc(C(F)(F)F)c3)CC2)C1=O (stereo not drawn)         mg/kg            100
3  CC1CC(=O)N(CC(=O)N2CCN(c3ccccc3F)CC2)C1=O (stereo not drawn)         mg/kg            300
4  CC1CC(=O)N(CC(=O)N2CCN(c3ccc(Cl)c(Cl)c3)CC2)C1=O (stereo not drawn)         mg/kg            100

## Task Which minimal effective dose value is on record for CCC1(C)CC(=O)N(CC(=O)N2CCN(c3cccc(C(F)(F)F)c3)CC2)C1=O (stereo not drawn) ?
## Result 100

## Task What about CC1CC(=O)N(CC(=O)N2CCN(c3cccc(Cl)c3)CC2)C1=O (stereo not drawn) ?
## Result 300

## Task What about CC1CC(=O)N(CC(=O)N2CCN(c3ccc(F)cc3)CC2)C1=O (stereo not drawn) ?
## Result 100
